TEST_SYSTEM: microbial transglutaminase (mTG) (Streptomyces mobaraensis, UniProt P81453)
Construct: purchased Covalab, France opr 0054
Sequence (P81453 77-407): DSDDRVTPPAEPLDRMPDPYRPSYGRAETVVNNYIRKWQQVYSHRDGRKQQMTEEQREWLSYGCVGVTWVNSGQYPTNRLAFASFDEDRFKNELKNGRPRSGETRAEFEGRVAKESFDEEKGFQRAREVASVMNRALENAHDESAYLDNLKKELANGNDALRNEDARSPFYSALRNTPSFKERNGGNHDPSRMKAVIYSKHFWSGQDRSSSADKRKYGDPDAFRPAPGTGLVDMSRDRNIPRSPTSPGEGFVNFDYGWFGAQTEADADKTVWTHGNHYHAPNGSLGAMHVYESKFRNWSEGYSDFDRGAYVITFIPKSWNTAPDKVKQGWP
EXPERIMENTAL_PROTOCOL: Colorimetric assay: mTG incorporation of biotinylated peptides into immobilized spermine, apparent Km
Format: biochemical
ASSAY_CONTEXT: biotin tagged peptides at 160-0 μM, spermine plate, Lineweaver-Burk; nr = peptide not recognized by the enzyme
Where no end group is shown, it is not given here.
MEASURED_QUANTITY: Kmapp

VWRSQYF (also: biotin, place not given here) [bVF7Q5] = nr
KEEFQPL (also: biotin, place not given here) [bKL7Q5] = nr
DVYSNH (also: biotin, place not given here) [bDH6N5] = nr
WPLMMQD (also: biotin) [bWD7Q7] = nr
PLVQSH (also: biotin, place not given here) [bPH6Q4] = 14.77 µM
HDLMWPDVYSQH (also: biotin, place not given here) [bHH12Q11] = 3.08 µM
HSQALP [bHP6Q3(A)] = nr
LLTLPSVSEQN (also: biotin, place not given here) [bLN11Q10] = nr

###

TEST_SYSTEM: microbial transglutaminase (mTG) (Streptomyces mobaraensis, UniProt P81453)
Construct: purchased Covalab, France opr 0054
Sequence (P81453 77-407): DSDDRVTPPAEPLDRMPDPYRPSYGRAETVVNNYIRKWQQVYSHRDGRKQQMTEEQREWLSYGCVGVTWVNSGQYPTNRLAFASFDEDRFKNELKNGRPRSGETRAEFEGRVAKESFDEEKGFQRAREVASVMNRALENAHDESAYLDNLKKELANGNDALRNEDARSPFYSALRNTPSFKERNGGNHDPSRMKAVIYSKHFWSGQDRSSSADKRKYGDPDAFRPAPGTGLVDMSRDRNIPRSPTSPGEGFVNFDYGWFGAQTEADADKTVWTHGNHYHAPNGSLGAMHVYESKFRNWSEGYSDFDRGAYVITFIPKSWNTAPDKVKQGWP
EXPERIMENTAL_PROTOCOL: Colorimetric assay: mTG incorporation of biotinylated peptides into immobilized spermine, apparent Km
Format: biochemical
ASSAY_CONTEXT: biotinylated peptides, spermine plate
MEASURED_QUANTITY: reactivity of peptide with mTG (text on Table 3)

HDLMWPDVYSQH (Peptide HH12Q11) = highly reactive with mTG
WPDVYSQH (Peptide WH8Q7) = highly reactive with mTG
DVYSQH (Peptide DH6Q5) = highly reactive with mTG

###

TEST_SYSTEM: microbial transglutaminase (mTG) (Streptomyces mobaraensis, UniProt P81453)
Construct: purchased Covalab, France opr 0054
Sequence (P81453 77-407): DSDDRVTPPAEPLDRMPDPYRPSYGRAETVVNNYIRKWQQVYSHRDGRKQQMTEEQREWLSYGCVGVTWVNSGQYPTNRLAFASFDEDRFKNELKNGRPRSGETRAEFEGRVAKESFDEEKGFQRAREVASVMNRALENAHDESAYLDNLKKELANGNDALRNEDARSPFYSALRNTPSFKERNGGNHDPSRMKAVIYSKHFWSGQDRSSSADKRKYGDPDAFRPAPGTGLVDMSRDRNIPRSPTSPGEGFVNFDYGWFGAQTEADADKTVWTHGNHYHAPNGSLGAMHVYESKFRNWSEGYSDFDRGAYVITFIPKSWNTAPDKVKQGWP
EXPERIMENTAL_PROTOCOL: Colorimetric assay: mTG incorporation of biotinylated peptides into immobilized spermine, apparent Km
Type: biochemical
ASSAY_CONTEXT: biotin tagged peptides at 160-0 μM, spermine plate, Lineweaver-Burk; nr = peptide not recognized by the enzyme
Where no end group is shown, it is not given here.
MEASURED_QUANTITY: Kmapp

HNKSQAL (also: biotin tag, position not given here) [bHL8Q6] = nr
PSVQES (not fully specified; also: biotin tag, site not given here) [bPS6Q3] = nr
DVYSQH (also: biotin, place not given here) [bDH6Q5] = 33.10 µM
LLTLPSVQEQN (also: biotin, place not given here) [bLN11Q8-10] = 172.00 µM
SPLKHQEY (also: biotin, place not given here) [bSY8Q6] = >50.00 µM
DVYSQE (also: biotin, place not given here) [bDE6Q5] = nr
CHQSYV (also: biotin, place not given here) [bCV6Q3] = nr
WPDVYSQH (also: biotin) [bWH8Q7] = 11.40 µM
HDLMWPDVYSNH (also: biotin, place not given here) [bHH12N11] = nr
